- assay_overview: Partition coefficient in n-octanol/ water system at pH= 7.0
- Type: physicochemical
Classify: label 1 when logD is strictly less than 6; label 0 when logD is not.

Would you kindly verify if logD of CCCN1C(=O)[C@H](C)OC(=O)[C@H](CC(C)C)N(CCC)C(=O)[C@@H](Cc2ccccc2)OC(=O)[C@H](CC(C)C)N(CCC)C(=O)[C@@H](C)OC(=O)[C@H](CC(C)C)N(CCC)C(=O)[C@@H](Cc2ccccc2)OC(=O)[C@@H]1CC(C)C is strictly less than 6?
label 0

Hello, I'm reviewing records and need to know if logD of CCN1C(=O)[C@H](C)OC(=O)[C@H](CC(C)C)N(CC)C(=O)[C@@H](Cc2ccccc2)OC(=O)[C@H](CC(C)C)N(CC)C(=O)[C@@H](C)OC(=O)[C@H](CC(C)C)N(CC)C(=O)[C@@H](Cc2ccccc2)OC(=O)[C@@H]1CC(C)C is below 6. Could you check?
label 0

hey, is logD for CCC(C)[C@H]1C(=O)O[C@H](Cc2ccccc2)C(=O)N(C)[C@@H](C(C)CC)C(=O)O[C@H](C)C(=O)N(C)[C@@H](C(C)CC)C(=O)O[C@H](Cc2ccccc2)C(=O)N(C)[C@@H](C(C)CC)C(=O)O[C@@H](C)C(=O)N1C (stereo partly specified) lower than 6 or not?
label 0

In plain terms, does CC(C)C[C@H]1C(=O)O[C@H](Cc2ccccc2)C(=O)N(C)[C@@H](C)C(=O)O[C@@H](C)C(=O)N(C)[C@@H](C)C(=O)O[C@H](Cc2ccccc2)C(=O)N(C)[C@@H](CC(C)C)C(=O)O[C@H](C)C(=O)N1C come in under 6 for logD?
label 1

Confirm or reject: logD of CC(C)[C@H]1C(=O)O[C@H](Cc2ccccc2)C(=O)N(C)[C@@H](C(C)C)C(=O)O[C@H](C)C(=O)N(C)[C@@H](C(C)C)C(=O)O[C@H](Cc2ccccc2)C(=O)N(C)[C@@H](C(C)C)C(=O)O[C@@H](C)C(=O)N1C lies strictly below 6
label 1

API: query returns whether the compound falls strictly under 6 in logD. Query: CCC[C@H]1C(=O)O[C@H](Cc2ccccc2)C(=O)N(C)[C@@H](CCC)C(=O)O[C@H](C)C(=O)N(C)[C@@H](CCC)C(=O)O[C@H](Cc2ccccc2)C(=O)N(C)[C@@H](CCC)C(=O)O[C@@H](C)C(=O)N1C
label 1

Please indicate whether the reported logD of CC(C)C[C@H]1C(=O)O[C@H](Cc2ccccc2)C(=O)N(C(C)C)[C@@H](CC(C)C)C(=O)O[C@H](C)C(=O)N(C(C)C)[C@@H](CC(C)C)C(=O)O[C@H](Cc2ccccc2)C(=O)N(C(C)C)[C@@H](CC(C)C)C(=O)O[C@@H](C)C(=O)N1C(C)C is strictly below 6.
label 0

Lab log: compare recorded logD with 6; is it strictly lower for CCC[C@H]1C(=O)O[C@H](Cc2ccccc2)C(=O)N(C)[C@@H](CC(C)C)C(=O)O[C@H](C)C(=O)N(C)[C@@H](CC(C)C)C(=O)O[C@H](Cc2ccccc2)C(=O)N(C)[C@@H](CCC)C(=O)O[C@@H](C)C(=O)N1C ?
label 1

API: query returns whether the compound falls strictly under 6 in logD. Query: C[C@@H]1OC(=O)[C@H](C)N(C)C(=O)[C@@H](Cc2ccccc2)OC(=O)[C@H](C)N(C)C(=O)[C@@H](C)OC(=O)[C@H](C)N(C)C(=O)[C@@H](Cc2ccccc2)OC(=O)[C@H](C)N(C)C1=O
label 1

* * *

Assign Activity to each entry below.
- Tested on: Ovis aries
- assay_overview: Anthelmintic activity against Haemonchus contortus nematode in sheep was determined as a function of >/= 90% egg reduction after i.v. administration
- Format: functional
One number for each entry.

Quick request: Activity for each listed item, please.
1. CC(C)C[C@H]1C(=O)O[C@H](Cc2ccccc2)C(=O)N(C)[C@@H](CC(C)C)C(=O)O[C@H](C)C(=O)N(C)[C@@H](CC(C)C)C(=O)O[C@H](Cc2ccccc2)C(=O)N(C)[C@@H](CC(C)C)C(=O)OC(C)C(=O)N1C (single isomer, unassigned)
2. CCC(C)[C@H]1C(=O)O[C@H](Cc2ccccc2)C(=O)N(C)[C@@H](C(C)CC)C(=O)O[C@H](C)C(=O)N(C)[C@@H](C(C)CC)C(=O)O[C@H](Cc2ccccc2)C(=O)N(C)[C@@H](C(C)CC)C(=O)O[C@@H](C)C(=O)N1C (some centres undefined)
3. CC(C)[C@H]1C(=O)O[C@H](Cc2ccccc2)C(=O)N(C)[C@@H](C(C)C)C(=O)O[C@H](C)C(=O)N(C)[C@@H](C(C)C)C(=O)O[C@H](Cc2ccccc2)C(=O)N(C)[C@@H](C(C)C)C(=O)O[C@@H](C)C(=O)N1C
4. CCC[C@H]1C(=O)O[C@H](Cc2ccccc2)C(=O)N(C)[C@@H](CC(C)C)C(=O)O[C@H](C)C(=O)N(C)[C@@H](CC(C)C)C(=O)O[C@H](Cc2ccccc2)C(=O)N(C)[C@@H](CCC)C(=O)O[C@@H](C)C(=O)N1C

1. 0.1
2. 1
3. 1
4. 0.5
